IC50 overview
- Target Or System: p38a/PRAK (Homo sapiens (Human), UniProt Q16539)
- Sequence (Q16539 whole entry): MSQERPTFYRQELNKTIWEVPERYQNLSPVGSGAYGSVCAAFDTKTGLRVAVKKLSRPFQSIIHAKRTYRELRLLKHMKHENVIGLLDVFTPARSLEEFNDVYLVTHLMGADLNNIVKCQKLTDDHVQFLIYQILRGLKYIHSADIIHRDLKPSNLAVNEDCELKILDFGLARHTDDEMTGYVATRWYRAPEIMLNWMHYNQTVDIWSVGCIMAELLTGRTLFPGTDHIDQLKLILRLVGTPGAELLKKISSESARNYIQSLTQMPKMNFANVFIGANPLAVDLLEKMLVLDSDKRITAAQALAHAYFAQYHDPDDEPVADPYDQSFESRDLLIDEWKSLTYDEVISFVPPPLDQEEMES
- Protocol Details: biochemical
- Experimental Parameters: 10-point 1:3 dilution, top dose 300 μM; 10 μM ATP, 2 h incubation; read-out: p38a/PRAK Enzyme pIC50 (converted)
- From the text: Expression vectors of the recombinant MK2 and PRAK kinases were constructed by cloning of the codon optimized gene sequences of MK2 (Uniprot ID P49137, amino acid fragment F46-H400), or PRAK (Uniprot ID Q81W41, amino acid fragment M1-Q471) into pGEX-4T1 (GE) for over expression of these kinases with N-terminal GST-tag. […]
Express it in µM; write the number only.

# Compound, Target Or System, IC50 [µM]
rows = [
    ("COCc1cc(OCc2ncc(F)cc2F)c(Cl)c(=O)n1-c1cc(-n2cccc(C(C)(C)O)c2=O)ncc1C (single isomer, unassigned) [Example 3A]", "p38a/PRAK (Homo sapiens (Human), UniProt Q16539)", 5.01),
]

Item Cc1ccc(-n2cccc(C(C)(C)O)c2=O)cc1-n1c(C)cc(OCc2ncc(F)cc2F)c(Cl)c1=O (single isomer, unassigned) [Example 2A] was tested on p38a/PRAK (Homo sapiens (Human), UniProt Q16539); the reported IC50 is 1.26

Item Cc1cnc(-n2cccc(C(C)(C)O)c2=O)cc1-n1c(C)cc(OCc2ncc(F)cc2F)c(Cl)c1=O (single isomer, unassigned) [Example 1A] was tested on p38a/PRAK (Homo sapiens (Human), UniProt Q16539); the reported IC50 is 3.16
